Test system: Staphylococcus aureus MSSA (SH1000)
Test: Minimum inhibitory concentration (MIC), broth microdilution
Format: cell-based
Details: Table 3; read-out: MIC S. aureus
Description: The term “minimum inhibitory concentration (MIC)” means the lowest concentration of an antimicrobial agent that will inhibit the visible growth of a microorganism after overnight incubation. MIC values against bacteria, for example, the Gram-positive Staphylococcus aureus and Enterococcus faecalis and the Gram-negative Escherichia coli and Pseudomonas aeruginosa were determined by standard methods. […] Minimum inhibitory concentration (MIC) values against bacteria were measured using standard method. […]
parameter_measured: MIC (µM)
Give the quantity in µM, number only.

Return MIC measured with Staphylococcus aureus MSSA (SH1000) given this molecule: CCCCCCCCCCCC[N+](C)(C)CCN(C)CC[N+](C)(C)CCCCCCCCCCCC.[Br-].[Br-]
1

// repeat for C=CC[N+](C)(CC[N+](C)(C)CCCCCCCCCC)CC[N+](C)(C)CCCCCCCCCC.[Br-].[Br-].[Br-] and report
2

Moving on to CCCCCCCCCCCCCC[N+](C)(C)CCN(C)CC[N+](C)(C)CCCCCCCCCCCCCC.[Br-].[Br-]
2

How about CCCCCCCCCCCC[N+](C)(C)CCC[N+](C)(C)CCC[N+](C)(C)CCCCCCCCCCCC.[Br-].[Br-].[I-] ?
1

Moving on to CCCCCCCCCCCC[N+](C)(C)CCCCCCC[N+](C)(C)CCCCCCCCCCCC.[Br-].[Br-]
1

Another molecule to look at: CCCCCCCCCCCCCC[N+](C)(C)CCN(C)CCN(C)CC[N+](C)(C)CCCCCCCCCCCC.[Br-].[Br-]
1

Thanks! And CCCCCCCCCCCC[N+](C)(C)CCN(C)CCN(C)CC[N+](C)(C)CCCCCCCCCCCC.[Br-].[Br-] ?
1

Can you check CCCCCCCCCCCC[N+](C)(C)CCCN(C)CCC[N+](C)(C)CCCCCCCCCCCC.[Br-].[Br-] next?
1

Repeat for the following molecule: C=CC[N+](C)(CC[N+](C)(C)CCCCCCCCCCC)CC[N+](C)(C)CCCCCCCCCCC.[Br-].[Br-].[Br-]
1

Next record, please: CCCCCCCCCC[N+](C)(C)CCCCC[N+](C)(C)CCCCCCCCCC.[Br-].[Br-]
2

Same question for CCCCCCCCCCCC[N+](C)(C)Cc1ccccc1.[Cl-] [Bn,12, benzyldimethyldodecylammonium chloride, reference compound] please.
8

Repeat for the following molecule: CCCCCCCCCCCCCC[N+](C)(C)CC[N+](C)(C)CC[N+](C)(C)CCCCCCCCCCCCCC.[Br-].[Br-].[I-]
1

###

system: CA-MRSA (USA300-0114) biofilms; test: Minimum biofilm eradication concentration (MBEC), regrowth assay; type: cell-based, Staphylococcus aureus; conditions: Table 5; USA300-0114
parameter_measured: MBEC CA-MRSA

Quick one: MBEC CA-MRSA for CCCCCCCCCCCCCCCC[N+](C)(C)CCN(C)C.[Br-] ?
>200 µM

Please do the same for CCCCCCCCCCCC[N+](C)(C)CCC[N+](C)(CCCCCCCCCCCC)CCC[N+](C)(C)CCCCCCCCCCCC.[Br-].[Br-].[Br-] as well.
>200 µM

Item: CCCCCCCCCCCC[N+](C)(C)CCC[N+](C)(CCC[N+](C)(C)CCCCCCCCCCCC)Cc1ccc(CCCCCCCC)cc1.[Br-].[Br-].[Br-]
>200 µM

# repeat for C=CC[N+](C)(CC[N+](C)(C)CCCCCCCCCCCC)CC[N+](C)(CC=C)CC[N+](C)(C)CCCCCCCCCCCC.[Br-].[Br-].[Br-].[Br-] (stereo not shown)
150 ± 50 µM
